Measured pIC50 (EGFR (human))
pIC50: −log10 of the molar value.
Readout: pIC50

[
  {
    "Cpd Smiles": "CN(c1ccc(N2CCOCC2)cc1)c1ncnc2nc(Nc3ccc(S(N)(=O)=O)cc3)sc12",
    "Observed": 5.48
  },
  {
    "Cpd Smiles": "OC[C@@H]1CCCN1Cc1ccc(Nc2nc3ncnc(Nc4ccc(F)c(Cl)c4)c3s2)cc1",
    "Observed": 7.96
  },
  {
    "Cpd Smiles": "CCN(c1ccc(N2CCOCC2)cc1)c1ncnc2nc(Nc3ccc(S(N)(=O)=O)cc3)sc12",
    "Observed": 5.00
  }
]
